Exercise: for every item that follows, state its recorded GI50.
# System: PC-3 prostate
# run description: NCI tumour cell line growth inhibition, 48 h

molecule	GI50
O[N+]1=CC=CCC1=S.On1ccccc1=S.[Zn]	834 nM
COc1cccc2c1-c1ccccc1C2=O	2220 nM
CCOC(=O)C1=C(C)N(c2ccc(OC)cc2)C2(O)C=CC(=O)C3C(=O)N(c4ccccc4)C(=O)C132 (stereo unspecified)	2890 nM

List GI50 for every entry below, keeping the order given.
1. CC(=O)c1cc2c(c(O)c1C)C(=O)C(=O)c1c(O)cccc1-2
2. Clc1ccc(/C=C2\CCCC3C2=Nc2ccccc2NC3c2ccc(Cl)cc2)cc1 (stereo unspecified)
3. Cc1cc(Nc2cccc(F)c2)nc(NCc2ccccc2)n1
4. O=C(Nc1cccc(-c2cccc(F)c2)c1)C1CCN(Cc2cccc3cccnc23)CC1

A.
["510 nM", "4450 nM", "4340 nM", "2210 nM"]

Consider the following items and state reported GI50 for each.
1. Cc1nc2cc(-n3c(-c4ccc(F)cc4)nc4ccccc4c3=O)ccc2n1Cc1ccccc1
2. COc1ccc2nc3cc(Cl)ccc3c(NCCCCCN3CCCCC3)c2c1
3. Cc1c(C(=O)O)n(-c2ccc(Cl)cc2)c2ncnc(N)c12
4. CCOC(=O)c1cc2c(c3ccsc13)C1(C)CCC3c4ccc(OC)cc4CCC3C1C2 (stereo unspecified)

A.
1. 1960 nM
2. 1070 nM
3. 19400 nM
4. > 100000 nM
